Each entry below carries its reported logD.
experiment notes: physchem
setup conditions: octanol/water
endpoint: logD

INSERT INTO measurements (compound, endpoint, censor_symbol, value) VALUES
  ('CC(C)Cn1c(=O)n(C)c(=O)c2c(SCCCO)n(Cc3cccc4ccccc34)cc21', 'logD', '=', 4.4),
  ('CC(C)Cn1c(=O)n(C)c(=O)c2c(SC3CCC3)c(Cc3ccccc3C(F)(F)F)sc21', 'logD', '>', 3.5),
  ('CC(C)Cn1c(=O)n(C)c(=O)c2c(C(=O)N3CCCC3)c(Cc3ccccc3C(F)(F)F)sc21', 'logD', '=', 3.8),
  ('CC(C)Cn1c(=O)n(C)c(=O)c2c(SCCCO)c(Cc3ccccc3C(F)(F)F)sc21', 'logD', '=', 4.1),
  ('CC(C)Cn1c(=O)n(C)c(=O)c2c(C(=O)N3CC[C@@H](O)C3)c(Cc3c[nH]c4ccccc34)sc21', 'logD', '=', 2.4),
  ('CC(C)Cc1nn(C)c(=O)c2c(SCCCO)n(Cc3cccc4ccccc34)cc12', 'logD', '=', 4.8),
  ('CC(C)Cn1c(=O)n(C)c(=O)c2c(SCC(O)CO)c(Cc3ccccc3C(F)(F)F)sc21 (racemic)', 'logD', '>', 4.5),
  ('CC(C)Cn1c(=O)n(C)c(=O)c2c(C(=O)N3CC[C@@H](O)C3)c(Cc3cccc4ncccc34)sc21', 'logD', '=', 2),
  ('CC(C)Cn1c(=O)n(C)c(=O)c2c(C(=O)N3CC[C@@H](O)C3)c(Cc3ccccc3C(F)(F)F)sc21', 'logD', '=', 2.7),
  ('Cc1nc(Cl)c(Cl)n1Cc1sc2c(c1C(=O)N1CC[C@@H](O)C1)c(=O)n(C)c(=O)n2CC(C)C', 'logD', '=', 1.6);
